The reported measurements were obtained from ChEMBL document CHEMBL3988442.

Would you mind telling me the reported Percent Effect of each entry?
# Test system: Mycobacterium tuberculosis
# procedureSummary: Cornell M. t heat shock assay; note: in the data most compounds retested in dose-response had high values
# Assay type: functional, organism-based
# Set-up: dose or concentration left out as unconfirmed
The whole screen tested about 69,000 compounds, of which about 950 (1.4%) showed an effect of 50% or more. This excerpt belongs to a sample that is enriched for strong results.
Answers are plain numbers, in %.

# count of solved cases: 2
CCC(C)[C@H](N)c1nnc(SCC(=O)Nc2cc(C)ccc2C)o1.Cl (stereo partly specified); -10.79
CCOC1COC2(CCN(Cc3cccc(F)c3)CC2)C1.O=C(O)C(F)(F)F (stereo unspecified); -9.066

Consider the following items and state reported Percent Effect for each.
1. COc1ccc(-c2nc(CNCCn3cccn3)cs2)cc1
2. CCn1c(NCc2ccccc2)nc2c(C)nn(C)c2c1=O
3. Cc1ccc(N2CCO[C@H]3CN(Cc4ccoc4)C[C@H]32)nn1.O=C(O)C(F)(F)F.O=C(O)C(F)(F)F
4. Cc1cccc(N2CCOCC3(C2)CN(c2ccoc2)C(=O)CO3)n1.O=C(O)C(F)(F)F (stereo unspecified)
5. O=C(O)C(F)(F)F.O[C@@H]1CCN(CC2CC2)[C@H]1Cc1ccccc1
6. Cc1ccc(C(CCNCCN(C)C)C2CCOC(C)(C)C2)cc1.O=C(O)C(=O)O (stereo unspecified)
7. Cc1nc(NCc2noc(C3CCCO3)n2)c2ccsc2n1 (stereo unspecified)
8. COC(=O)CCC(=O)N1CCCC2(CCCN2Cc2cccc(F)c2)C1.O=C(O)C(F)(F)F (stereo unspecified)

106.9
12.91
-23.95
36.14
-16.02
1.762
12.93
3.912

Query Percent Effect for COc1cccc2c(C)c(C(=O)N3CCNCC3C(N)=O)[nH]c12.Cl (stereo unspecified)
-6.521

* * *

# Tested on: Mycobacterium tuberculosis
# procedureSummary: Cornell M. t heat shock assay; note: in the data most compounds retested in dose-response had high values
# Assay type: functional, organism-based
# Set-up: dose or concentration left out as unconfirmed
Out of some 69,000 compounds screened, about 950 (1.4%) showed an effect of 50% or more. Shown is part of a subset that was picked to be rich in strong results.
readoutName: Percent Effect (%)
Numbers only, in %.

# count of solved cases: 2
Cc1cc(NC(=O)C(C)Nc2cccc(COCc3ccco3)c2)on1 (stereo not drawn); 4.042
CC(C)NC(=O)N1CCC2(CCC(=O)N2CCN(C)C)CC1.O=C(O)C(F)(F)F; -12.81

Please look at the following compound next.
Query Percent Effect for `CN(C)C(=O)[C@@H]1CC[C@@H]2[C@@H](CCN2Cc2nccs2)O1.O=C(O)C(F)(F)F`
11.33

* * *

# System: Mycobacterium tuberculosis
# procedureSummary: Cornell M. t heat shock assay; note: in the data most compounds retested in dose-response had high values
# Assay type: functional, organism-based
# Set-up: dose or concentration left out as unconfirmed
Among all 69,000 compounds or so, about 950 (1.4%) showed an effect of 50% or more. The sample holds strong results, similar compounds and a random draw of the others, so the mix is not that of the screen.
Would you mind telling me the reported Percent Effect of each entry?
One number for each entry, in %.

# count of solved cases: 4
Cc1ccc2c(c1)C(NCc1ncnn1C)CC2 (stereo not given); -20.52
Cc1ccc2c(c1)C(NCc1ccccn1)CC2 (stereo not given); 89.07
Cc1nc(Nc2ncc(C)s2)cc(C2CCCN2S(C)(=O)=O)n1 (stereo not given); -9.231
Clc1cc(CN2CCCC(Cn3cncn3)C2)c2ncccc2c1 (stereo not given); -4.966

Please look at the following compound next.
Query Percent Effect for COc1cc(Cl)cc(CN2CCCC(N3CCOCC3)C2)c1OC (stereo not given)
2.91
